- ASSAY TARGET: T1, cynomolgus CD73 on the cell surface (293T/17-cynoCD73 cells) (cynomolgus (Macaca fascicularis), UniProt P21589 27-547 (human entry))
- T1 construct: it is an ecto-domain with a His tag
- T1 chain: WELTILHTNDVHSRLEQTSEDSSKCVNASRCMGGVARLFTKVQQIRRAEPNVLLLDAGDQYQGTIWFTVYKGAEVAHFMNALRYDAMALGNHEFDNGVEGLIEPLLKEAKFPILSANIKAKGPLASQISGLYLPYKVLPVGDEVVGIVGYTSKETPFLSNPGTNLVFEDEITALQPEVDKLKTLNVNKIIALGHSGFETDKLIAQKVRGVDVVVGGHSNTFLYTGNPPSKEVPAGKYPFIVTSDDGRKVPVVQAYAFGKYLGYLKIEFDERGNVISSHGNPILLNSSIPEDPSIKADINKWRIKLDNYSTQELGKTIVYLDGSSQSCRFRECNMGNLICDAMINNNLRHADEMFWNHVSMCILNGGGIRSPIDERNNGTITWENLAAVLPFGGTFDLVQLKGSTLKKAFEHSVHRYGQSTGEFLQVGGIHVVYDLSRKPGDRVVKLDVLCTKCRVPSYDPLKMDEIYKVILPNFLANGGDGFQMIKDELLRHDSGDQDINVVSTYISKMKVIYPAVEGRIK
- EXPERIMENT NOTES: flow cytometry on 293T/17-Cyno CD73 cells, curve fit
# maps each entry to its Bottom
Give your result in fluorescence as a bare value.

JB24H2L1 (antibody, human IgG1, kappa, V domains shown, Humanized antibody of JB24Chi, human IgG1 / kappa) VH: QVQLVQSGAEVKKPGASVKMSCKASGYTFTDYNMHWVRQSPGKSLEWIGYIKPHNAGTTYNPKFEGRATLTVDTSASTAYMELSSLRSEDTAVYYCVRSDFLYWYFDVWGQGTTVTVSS VL: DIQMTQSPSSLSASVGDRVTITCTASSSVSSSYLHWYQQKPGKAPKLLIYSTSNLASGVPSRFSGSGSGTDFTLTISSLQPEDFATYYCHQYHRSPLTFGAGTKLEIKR = 1.4

Turning now to a further record.
**Query** For the binder shown here, JB94H2L1 (antibody, human IgG1, kappa, V domains shown, Humanized antibody of the 94 clone, human IgG1 / kappa) VH: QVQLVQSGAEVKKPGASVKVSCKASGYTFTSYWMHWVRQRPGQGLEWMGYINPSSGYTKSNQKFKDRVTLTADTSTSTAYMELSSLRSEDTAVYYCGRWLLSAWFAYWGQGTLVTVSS VL: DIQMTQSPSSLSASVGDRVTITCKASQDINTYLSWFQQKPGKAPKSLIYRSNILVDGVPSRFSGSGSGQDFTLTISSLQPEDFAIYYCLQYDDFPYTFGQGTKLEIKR , give the reported Bottom.
**Result** 0.22

Recorded values, source patent US20220064322A1.
